The origin of these recorded values is ChEMBL document CHEMBL3988442.

For each entry below, report its Percent Effect value.
- Tested on: Mycobacterium tuberculosis
- protocol.description: Cornell - Phenotypic assay to identify agents that inhibit growth of Mycobacterium tuberculosis
- Type: functional
- Design: scale not given: direction of the effect not stated beside the values
- conditions: 10 mM as filed; unlikely as a test dose
Out of some 53,000 compounds screened, about 900 (1.7%) showed an effect of 50% or more. This is one part of a sample in which strong results are shown more often than they occur.
# unit: % | format: bare number

Identify the reported Percent Effect for the following entry. Cc1ccc(OCCN2CCC(c3nc(C)n4c(C)csc34)CC2)cc1 54.47

Tell me Percent Effect reported for CC(=O)Nc1ccc(F)c(S(=O)(=O)NC(C)(C)C)c1 40.62

Give recorded Percent Effect. Cc1ccc(C(=O)NS(=O)(=O)c2ccc3c(c2)OCCCO3)o1 -1.542

Fill in reported Percent Effect for this entry: CC(C)(C)NS(=O)(=O)c1cc(NC(=O)C2CC2)ccc1F 50.55

Give the reported Percent Effect for this compound. CCC(=O)Nc1ccc(F)c(S(=O)(=O)NC(C)(C)C)c1 -2.357

Give the measured Percent Effect for Cc1csc2c(C3CCN(CCCOc4ccccc4)CC3)nc(C)n12 35.94

Let me know recorded Percent Effect for CC(=O)N1CCCN(C(=O)NCCNc2cnccn2)CC1 , thanks. 8.364

Return Percent Effect for the following compound: O=C(NCCC1COc2ccccc2O1)c1ccc(N2CC(O)C2)nc1 (stereo unspecified) -14.99

Quickly give me recorded Percent Effect for Cc1cc(CN2CCCC2)cc(Oc2nc(C)cnc2C)c1 -0.05473

Recall and state the measured Percent Effect for Cc1csc2c(C3CCN(CCOc4ccccc4F)CC3)nc(C)n12 . -14.57

Fill in Percent Effect for record CC1CCN(C(=O)C2CC(=O)N(c3cnn(C(C)C)c3)C2)CC1 (stereo unspecified) -3.187

* * *

- Tested on: Mycobacterium tuberculosis
- protocol.description: Cornell - Phenotypic assay to identify agents that inhibit growth of Mycobacterium tuberculosis
- Assay type: functional
- Parameters: scale not given: direction of the effect not stated beside the values
- conditions: 10 mM as filed; unlikely as a test dose
Hit rate of the full screen: of about 53,000 compounds, about 900 (1.7%) showed an effect of 50% or more. The list comes from a sample in which strong results are over-represented; it also holds close analogues and randomly drawn compounds.
readout: Percent Effect

Kindly indicate its recorded Percent Effect. Item: CCc1c(C)sc2c1c(N)nc(=O)n2CCN1CCCCC1 22.93%

For Cc1cn([C@H]2CCNC[C@]2(C)O)c(=O)[nH]c1=O , write its Percent Effect. 34.03%

Look up and state reported Percent Effect for CC(C)N1CC(n2ccnc2-c2nccn2C)CC1=O (stereo not given) -23.92%

Determine from records and report Percent Effect for CC(C)(C)CC(=O)N1CCC(c2nn(CCN)c3nccnc23)C1 (stereo not given) -1.305%

# return recorded Percent Effect for entry COc1c(C2CCCN2C(=O)c2cncnc2C)c(C)nn1C (stereo not given) -27.58%

Look up and state reported Percent Effect for CC(C)N1CC[C@@](C)(O)[C@H](n2ccc(=O)[nH]c2=O)C1 -3.084%

Using known records, supply Percent Effect for Cc1nn(C)c(C)c1C1CCCN1CCCC#N (stereo not given) -3.092%

# return recorded Percent Effect for entry CC(C)c1nc(C2CCCN2CCc2ccncc2)no1 (stereo not given) -12.21%

Supply measured Percent Effect of CCN(CC)C1CCN(C(=O)NCc2cccc(-n3ccnc3)c2)C1 (stereo not given) in your reply. 34.25%

Query Percent Effect for CCc1nc(CN(C)C(=O)c2cc(CN(CC)CC)c(CC)o2)no1 11.36%

Report Percent Effect for c1ccc2oc(CCCN3CCCC3Cn3cncn3)nc2c1 (stereo not given) 23.86%

Check the records and state Percent Effect for Clc1cnc(NCc2ccccc2N2CCOCC2)nc1 11.26%

Please report Percent Effect for the following molecule: NC(=O)N1CCc2ncc(CNC(=O)CC3CC3)n2CC1 -19.97%

Read off the recorded Percent Effect for Cc1ncc2c(n1)C1(CCN(C(=O)C3CC3)CC1)OCC2.Cl 55.8%

Fill in reported Percent Effect for this entry: COCC1c2c(cnn2C)CCN1Cc1ccsc1 (stereo not given) 24.96%

Retrieve Percent Effect measured for O=C(CC1CCCC1)N1CCC(c2cc3ncccc3c(O)n2)CC1 and print it. -42.1%

Give Percent Effect for Cc1nn(C)c(C)c1C1CCCN1CCCc1nc2ccccc2o1 (stereo not given) 65.17%

Provide measured Percent Effect value, entry: Cc1cnn(CC2CCCN2CCCc2nc3ccccc3o2)c1 (stereo not given) 32.71%

Fill in Percent Effect for record c1ccc2oc(CCCN3CCCCC3Cn3cncn3)nc2c1 (stereo not given) 60.48%

Tell me Percent Effect reported for Cc1cc(C2CCCN2CCCc2nc3ccccc3o2)on1 (stereo not given) 56.86%

Provide measured Percent Effect value, entry: c1ccc2oc(CN3CCCCC3Cn3cncn3)nc2c1 (stereo not given) 10.3%

Supply measured Percent Effect of Cc1nc(C)n(CC2CCCN2CCCc2nc3ccccc3o2)n1 (stereo not given) in your reply. 0.1227%

State its Percent Effect: Cc1cc(C)n(CC2CCCN2CCCc2nc3ccccc3o2)n1 (stereo not given) 14.18%

Return Percent Effect (reported value) for this molecule: N#CCCn1nc(C(F)(F)F)c2c1CCCC2 -22.61%

Give Percent Effect for the following molecule: Cc1ccc(C#N)c(N2CC(C)(C)[C@@](C)(O)C2)n1 10.2%
